# PROTOCOL_NOTES: Bioanalysis of brain and plasma samples (exposure, UPLC-MS/MS)
# Assay type: in vivo
# CONDITION_DETAILS: male, Sprague Dawley, brain/plasma, po; rat, 10 mg/kg p.o., 3 hours post dose; read-out: Brain/Plasma ratio
MEASURED_ENDPOINT: Kp at 3 h
The response must contain the number and no unit.

> print(dat)
                                   compound  measured.endpoint  value
1  COc1cnc(C(=O)Nc2ccc(F)c([C@@]3(C(F)F)N=C(N)CCC3(F)F)c2)cn1 [Compound 3]          Kp at 3 h    0.3

The record that follows has no Kp at 3 h shown yet.
INPUT: # query: Kp at 3 h of entry COc1ccc(C(=O)Nc2ccc(F)c([C@@]3(C(F)F)N=C(N)CCC3(F)F)c2)nc1 [Compound 5]
OUTPUT: 0.28
